tested on: 222 human kinases; assay: Millipore kinase profiling (radioactive filter binding activity assay at [ATP] = KM,ATP) and selectivity metrics calculated from it; assay type: biochemical; settings: calculated from Millipore activity data
Each entry falls in a class defined on S10x; the bands are label 0: < 0.005; label 1: ≥ 0.005 and < 0.02; label 2: ≥ 0.02

Cc1nc(Nc2ncc(C(=O)Nc3c(C)cccc3Cl)s2)cc(N2CCN(CCO)CC2)n1 | label 2
C[S+]([O-])c1ccc(-c2nc(-c3ccncc3)c(-c3ccc(F)cc3)[nH]2)cc1 (centres unmarked) | label 1
Cc1ccc(F)c(NC(=O)Nc2ccc(-c3cccc4[nH]nc(N)c34)cc2)c1 | label 2
O=C(O)c1ccc(Nc2ncc3c(n2)-c2ccc(Cl)cc2C(c2c(F)cccc2F)=NC3)cc1 | label 0
COc1cc2c(Nc3ccc(Br)cc3F)ncnc2cc1OCC1CCN(C)CC1 | label 2
CNC(=O)c1cc(Oc2ccc(NC(=O)Nc3ccc(Cl)c(C(F)(F)F)c3)cc2)ccn1 | label 2
Cc1ccc(-n2nc(C(C)(C)C)cc2NC(=O)Nc2ccc(OCCN3CCOCC3)c3ccccc23)cc1 | label 1
Cn1cnc2c(F)c(Nc3ccc(Br)cc3Cl)c(C(=O)NOCCO)cc21 | label 0
O=C(NOC[C@H](O)CO)c1ccc(F)c(F)c1Nc1ccc(I)cc1F | label 0
Cn1c(Nc2ccc(C(F)(F)F)cc2)nc2cc(Oc3ccnc(-c4ncc(C(F)(F)F)[nH]4)c3)ccc21 | label 1
CCN(CCO)CCCOc1ccc2c(Nc3cc(CC(=O)Nc4cccc(F)c4)[nH]n3)ncnc2c1 | label 1

----------
tested on: 222 human kinases; assay: Millipore kinase profiling (radioactive filter binding activity assay at [ATP] = KM,ATP) and selectivity metrics calculated from it; assay type: biochemical; details: calculated from Millipore activity data
Reported Pmax values follow for various molecules
property-measured: Pmax

CCN(CC)CCNC(=O)c1c(C)[nH]c(/C=C2\C(=O)Nc3ccc(F)cc32)c1C | 0.107
Cc1ccc(-n2nc(C(C)(C)C)cc2NC(=O)Nc2ccc(OCCN3CCOCC3)c3ccccc23)cc1 | 0.440
COc1cc2c(N3CCN(C(=O)Nc4ccc(OC(C)C)cc4)CC3)ncnc2cc1OCCCN1CCCCC1 | 0.621
CCN(CCO)CCCOc1ccc2c(Nc3cc(CC(=O)Nc4cccc(F)c4)[nH]n3)ncnc2c1 | 0.603
Cc1cn(-c2cc(NC(=O)c3ccc(C)c(Nc4nccc(-c5cccnc5)n4)c3)cc(C(F)(F)F)c2)cn1 | 0.208
C[S+]([O-])c1ccc(-c2nc(-c3ccncc3)c(-c3ccc(F)cc3)[nH]2)cc1 (centres unmarked) | 0.342
Oc1cccc(-c2nc(N3CCOCC3)c3oc4ncccc4c3n2)c1 | 0.561
O=C(O)c1ccc(Nc2ncc3c(n2)-c2ccc(Cl)cc2C(c2c(F)cccc2F)=NC3)cc1 | 0.617

----------
tested on: 222 human kinases; assay: Millipore kinase profiling (radioactive filter binding activity assay at [ATP] = KM,ATP) and selectivity metrics calculated from it; assay type: biochemical; settings: calculated from Millipore activity data
property-measured: S10x

C[C@@H]1CCN(C(=O)CC#N)C[C@@H]1N(C)c1ncnc2[nH]ccc12 | 0.005
Oc1cccc(-c2nc(N3CCOCC3)c3oc4ncccc4c3n2)c1 | 0.005
COc1cc2c(N3CCN(C(=O)Nc4ccc(OC(C)C)cc4)CC3)ncnc2cc1OCCCN1CCCCC1 | 0.005
